// provenance: ChEMBL document CHEMBL2062516

Give MIC for every item shown.
System: Pseudomonas aeruginosa
Assay: Antibacterial activity against Pseudomonas aeruginosa ATCC 27853
Format: functional
Respond with the bare value in µg/mL.

Q: Note MIC for the compound shown: "CC(C)CCO/N=C(\C(=O)N[C@@H]1C(=O)N2C(C(=O)O)=C(CSc3nnnn3CCO)OC[C@H]12)c1nsc(N)n1"
A: 8

Q: Using known records, supply MIC for "CCO/N=C(\C(=O)N[C@@H]1C(=O)N2C(C(=O)O)=C(CSc3nncs3)OC[C@H]12)c1nsc(N)n1"
A: 128

Q: Note down MIC recorded for "CCCCCO/N=C(\C(=O)N[C@@H]1C(=O)N2C(C(=O)O)=C(CSc3nncs3)OC[C@H]12)c1nsc(N)n1"
A: 16

Q: Give the reported MIC for this compound. "Nc1nc(/C(=N/OC2CCCCC2)C(=O)N[C@@H]2C(=O)N3C(C(=O)O)=C(CSc4nnnn4CCO)OC[C@H]23)ns1"
A: 64

Q: Specify MIC for "CO/N=C(\C(=O)N[C@@H]1C(=O)N2C(C(=O)O)=C(CSc3nnnn3CCO)OC[C@H]12)c1nsc(N)n1" and stop.
A: 16

Q: Assign MIC to the following record: "Nc1nc(/C(=N/OC2CCCC2)C(=O)N[C@@H]2C(=O)N3C(C(=O)O)=C(CSc4nncs4)OC[C@H]23)ns1"
A: 16

Q: Let me know recorded MIC for CC(C)(O/N=C(\C(=O)N[C@@H]1C(=O)N2C(C(=O)[O-])=C(C[n+]3ccccc3)CS[C@H]12)c1csc(N)n1)C(=O)O [CEFTAZIDIME] , thanks.
A: 16
